measured-target: hMPV A1 F trimer (heated) (human metapneumovirus)
test-details: ELISA on coated recombinant protein, OD 405 nm

# binder, EC50 / µg/mL
rows = [
    ("MPV456 (antibody, V domains shown) VH: QVQLQESGPGVVKPSGTLSLTCGVSGGSISSSYWWSWVRQPPGKGLEWIGEIYHSGSTNYNPSLKRRVTISVDKSKNQFSLKVTSVTAADTAVYYCARGPIQYYDILTEERVGYCDYWGQGTLVTVSS VL: TLSASVGDRVTITCRASQSISSWLAWFQQKPGKAPKLLIYKTSSLESGVPSRFSGSGSGTEFTLTISSLQPDDFATYYCQEYNSYSRTFGQGTKVEIK", 1.8),
    ("MPV489 (antibody, V domains shown) VH: EVQLLESGGGLVQPGGSLRLSCAASKFTFNNYEMNWLRQAPGKGLEWVSSISSSGDTIHNADSVKGRFIISRDNAKNSLHLQMNGLRAEDTAVYYCARAGSGWAYDAFDIWGLGTMVTVSS VL: LSASVGDRVTITCRASQSISSFLNWYQQKPGKAPKLLMYAASSLPVGVPSRFSGSGSGPEYTLTISNLQPEDFATYYCQQGYSSPPTFGGGTRLEVK", 4.5),
    ("MPV485 (antibody, V domains shown) V domain 1: EVQLQEPGPGLVKPSETLSLTCTVSGGSISSTNSFWGWVRQPPGKGLEWIGSIYYSGTTYYNSSLKSRVTISVDTSKNQFSLRLSSVTAADTAVYYCARQGLTSSWYDGSGLDVWG V domain 2: SYELTQPPSVSVSPGQTASITCSGDKLGNKYACWYQQRPGQSPVLVIYQDTKRPSGIPERFSGSNSGNTATLTISGTQAMDEADYYCQAWDSNTVVFGGGTKLTVL", 0.32),
]
